Cited source for all entries: patent US20220185900A1

- TARGET_ENTITY: T1, Macaca fascicularis (mf) RET.mmh (Macaca fascicularis)
- T1 construct: also called monkey RET
- T1 chain: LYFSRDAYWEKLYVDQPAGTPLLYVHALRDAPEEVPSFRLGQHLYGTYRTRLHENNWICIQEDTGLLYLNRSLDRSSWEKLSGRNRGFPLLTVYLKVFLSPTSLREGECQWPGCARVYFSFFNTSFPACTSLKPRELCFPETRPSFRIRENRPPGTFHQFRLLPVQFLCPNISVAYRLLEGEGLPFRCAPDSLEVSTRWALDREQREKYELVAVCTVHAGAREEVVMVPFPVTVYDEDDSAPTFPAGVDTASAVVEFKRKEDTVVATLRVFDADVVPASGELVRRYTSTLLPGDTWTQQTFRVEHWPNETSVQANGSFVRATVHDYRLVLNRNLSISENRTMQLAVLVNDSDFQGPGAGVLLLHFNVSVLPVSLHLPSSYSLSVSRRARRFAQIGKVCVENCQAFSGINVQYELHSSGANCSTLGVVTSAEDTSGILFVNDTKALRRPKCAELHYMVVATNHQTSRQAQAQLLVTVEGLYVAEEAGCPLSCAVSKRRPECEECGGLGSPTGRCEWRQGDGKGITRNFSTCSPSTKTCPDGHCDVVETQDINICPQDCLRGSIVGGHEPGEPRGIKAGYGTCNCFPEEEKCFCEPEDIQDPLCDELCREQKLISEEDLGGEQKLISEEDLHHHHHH
- TEST_METHOD_NOTES: SPR Biacore T200, mAb capture, 25 C
Listing: koff of selected binders
Reply numerically in s⁻¹, unit not repeated.

BINDER	RESULT_TYPE	MEASUREMENT
H4H8062P (antibody, human IgG4, V domains shown, human IgG4 Fc (H4H prefix)) VH: EVQLVESGGGLVQPGGSLRLSCSVSGFIFKNYAMRWVRQAPGKGLEWVSGISGSGGITYYADSVRGRVTISRDNSKNTLDLQMTNLRAEDTAVYYCAKAEYSSSGAYFDYWGQGTLVTVSS VL: DIQMTQSPSSLSASVGDRVTITCRASQSIHNYLNWYLQRPGKAPKLLVYAASSLQSGVPSRFSGRGSGTDFTLTISSLQPEDFATYYCQQSYSAPYSFGQGTKLEIK	koff	0.000733
H4H8085P (antibody, human IgG4, V domains shown, human IgG4 Fc (H4H prefix)) VH: QVQLVESGGGVVQPGRSLRLSCTASGFTFDNYGMHWVRQAPGKGLEWVAVISYDGSNTFYADSVKGRFTISRDNSKNALYLQMNSLRAEDTAVYYCAKDLEFDILIGYPFDSWGRGTLVTVSS VL: DIQLTQSPSFLSASVGDRVTITCWASQDISRYLAWYQQKPGKAPNLLIYAASTLQSGVPSRFSGSGSGTEFTLTINSLQPEDFATYYCQQLFSYPRTFGQGTKVEIK	koff	0.000225
H4H8067P (antibody, human IgG4, V domains shown, human IgG4 Fc (H4H prefix)) VH: QVQLVESGGGVVQPGRSLRLSCVASGFTFSNYGMHWVRQAPGKGLEWVALIWYDGSNKYFADSVKGRFTISRDNSKRMMFLEMNSLRAEDTAIYYCTRDRLFDFWGQGTLVTVSS VL: AIQMTQSPSSLSASVGDRVSITCRASQDIRHDLGWFHQKPGKAPKLLIYAASTLQSGVPSRFGGSGSGTDFTLTITSLQPEDFGTYYCLQDYNYPATFGQGTRLEIK	koff	0.0415

## Input Quick check: koff of H4H8076P (antibody, human IgG4, V domains shown, human IgG4 Fc (H4H prefix)) VH: QVQLQQSGPGLVKPSQTLSLTCAISGDSVSSNSVAWNWIRQSPSRGLEWLGRTYYRSNWYNTYAVSVKSRITIDPDTSKNQFSLQLNSVTPEDTALYYCARGHRYSGSYFDYWGQGTLVTVSS VL: DIQMTQSPSSLSASVGDRVTITCRASQNINSYFNWYQQKPGKAPKLLIYAASSLQSGVPSRFSGGGSGTDFTLTISSLQPEDFATYYCQQTYTIPWTFGQGTKVEIK ?
## Output 0.000327
